Would you mind telling me the reported Kp at 1 h, 50 µM of each entry?
assay: Steady-state intracellular uptake in CCRF-CEM cells; type: in vitro ADME; conditions: human, CCRF-CEM cells, 60 min incubation, 50 μM at t = 0, read-out: Kp (intracellular accumulation ratio IC/EC)

Name the recorded Kp at 1 h, 50 µM for CCN(C[C@H]1O[C@@H](n2cc(C#Cc3nc4ccccc4[nH]3)c3c(N)ncnc32)[C@H](O)[C@@H]1O)S(=O)(=O)c1ccc(OC)c(C#N)c1 [Compound 12a] .
188

Report Kp at 1 h, 50 µM for COc1ccc(S(=O)(=O)N(C)C[C@H]2O[C@@H](n3cc(C#Cc4ccc(C(N)=O)cc4)c4c(N)ncnc43)[C@H](O)[C@@H]2O)cc1C#N [Compound 12r] please.
897

I am curious: what Kp at 1 h, 50 µM value has been reported for CCN(C[C@H]1O[C@@H](n2cc(C#Cc3ccc(N)nc3)c3c(N)ncnc32)[C@H](O)[C@@H]1O)S(=O)(=O)c1ccc(OC)c(C#N)c1 [Compound 12h] ?
480

I'd like to know its Kp at 1 h, 50 µM. The compound in question is CCN(C[C@H]1O[C@@H](n2cc(C#Cc3cccnc3)c3c(N)ncnc32)[C@H](O)[C@@H]1O)S(=O)(=O)c1ccc(OC)c(C#N)c1 [Compound 12l]
163

Returns the measured Kp at 1 h, 50 µM for the input compound. Input: COc1ccc(S(=O)(=O)N(C)C[C@H]2O[C@@H](n3cc(C#Cc4cccnc4)c4c(N)ncnc43)[C@H](O)[C@@H]2O)cc1C#N [Compound 12s]
604

I am curious: what Kp at 1 h, 50 µM value has been reported for COc1ccc(S(=O)(=O)N(C)C[C@H]2O[C@@H](n3cc(C#Cc4cnc5ccccc5c4)c4c(N)ncnc43)[C@H](O)[C@@H]2O)cc1C#N [Compound 12q] ?
5320

I have this compound here, CCN(C[C@H]1O[C@@H](n2cc(C#Cc3ccc(C(N)=O)cc3)c3c(N)ncnc32)[C@H](O)[C@@H]1O)S(=O)(=O)c1ccc(OC)c(C#N)c1 [Compound 12o] , and I need its recorded Kp at 1 h, 50 µM.
694
